# Tested on: SF-539
# protocol.description: NCI tumour cell line growth inhibition, 48 h
The source made the active and inactive calls. Rule as the data show it: active = GI50 up to about 1.1 µM and inactive = higher. Where a SMILES comes first, the peptide text is derived from it. [ ]: non-standard residue; d: D form. The star is where a group is joined. Cbz = O=C(OCc1ccccc1)*; Aib = CC(C)(N)C(=O)O
Classes used: 1 for active, -1 for inactive

compound | assigned.label
COc1ccccc1-c1cc(=O)c2ccccc2[nH]1 | -1
CCC1(O)C(=O)OCc2c1cc1n(c2=O)Cc2cc3c(N)cccc3nc2-1 (stereo not drawn) [RS-9-Aminocamptothecin] | 1
COc1cc2noc(-c3ccccc3)c2cc1OC | -1
CC(C)(NC(=O)C(C)(C)NC(=O)OCc1ccccc1)C(=O)O (Cbz-[Aib]-[Aib]-OH) | -1
Cc1ccc2c(c1)[nH]c(=S)n2C=C(C(N)=O)C(N)=O | -1
CC(C)(C)NC1C2CCC(C)(C1O)C2(C)C (stereo not drawn) | -1
CCCCCC(/C=C/C1CCC(=O)C1CC#C[Si](C)(C)C)OCc1ccccc1 (stereo not drawn) | -1
O=C(Nc1ccc(Cl)cc1)NS(=O)(=O)c1coc2ccccc2c1=O | -1
COc1ccc2nc3cc(Cl)ccc3c(Sc3ccc(N)cc3)c2c1 | -1
COc1ccc(CCCCl)c(C2=NCCc3cc(OC)c(OC)cc32)c1 | -1
CCN(CC)CCOCCOCC1(c2ccc(Cl)c(Cl)c2)CCCCC1 | -1
O=C(NC(=O)c1c(Cl)nc2sccn12)Nc1ccc(Cl)cc1 | -1
COc1cc(/C=C/C2=NN(c3cccc(S(=O)(=O)O)c3)C3(C2)C(Cl)C(=O)N3c2nc3ccccc3s2)ccc1O (stereo not drawn) | -1
O=P1(O)c2ccccc2CSCc2ccccc21 | -1
CC12OC1(C)C1C(=O)OCC1C2=O (stereo not drawn) | -1
COc1cc(/C=C2\CCc3ccccc3C2=O)cc(OC)c1OC | -1
COc1cc(C2C(C(=O)O)=C(CO)Oc3cc4c(cc32)OCO4)cc(OC)c1O (stereo not drawn) | -1
CCCCCCn1c(SCC)c2ccccc2c1-c1nc(F)nc(F)n1 | -1
CC(Nc1cc(=O)n(C)c(=O)[nH]1)c1ccccc1 (stereo not drawn) | -1
NC(=O)[C@H](Cc1ccc(O)cc1)NC1=C(Cl)C(=O)c2c(O)ccc(O)c2C1=O | -1
COC(=O)C(NC(=O)C12CCC(C)(C(=O)O1)C2(C)C)c1cc(C(C)(C)C)c(O)c(C(C)(C)C)c1 (stereo not drawn) | -1
N#Cc1cccc2c1Sc1ccccc1N2 | -1
CCOC(=O)c1sc2nc(SC)nc3c2c1NCN3c1ccc2c(c1)OCCCO2 | -1
CC(C)(C)COC(=O)C(C)(C)NC(=O)C(CC(=O)OCc1ccccc1)NC(=O)OCc1ccccc1 (stereo not drawn) | -1
CCOC(=O)c1cc2cc(N(C(C)=O)C(C)=O)ccc2s1 | -1
CCCCCCCCCCCCC(SCCNC(=O)CCNC(=O)C(O)C(C)(C)COP(=O)(O)OP(=O)(O)OCC1OC(n2cnc3c(N)ncnc32)C(O)C1OP(=O)(O)O)C(=O)NCC(N)=O (stereo not drawn) | -1
CC(=O)OCC1OC(OC2CC3C(C)(C)C(OC(C)=O)CC[C@]3(C)C3CCC45CC4(CC[C@H]5C(C)CC(O)C4OC4(C)C)[C@]23C)C(O)C(O)C1O (stereo partly drawn) | -1
COC(=O)NNC(c1ccc(Cl)cc1)c1ccc(Cl)cc1 | -1
Cc1ccc(Cl)c2c1NC(=O)/C2=N\Nc1ccccc1[N+](=O)[O-] | -1
CCOC(=O)C(O)(NC(=O)NC(O)(C(=O)OCC)C(F)(F)F)C(F)(F)F (stereo not drawn) | -1
Nc1n[c-](N)[n+](=O)c(N)c1NCO | -1
COc1ccc2c(=O)c(-c3cc(OC)c(OC)cc3OC)coc2c1 | -1
COC[C@@H](/N=C/C(C)(C)C)C(C)C | -1
CC(=O)OCC1C(C(C)OC(C)=O)CCC2C1CCC1(C)C(OC(C)=O)CCC21 (stereo not drawn) | -1
Cc1c2ccncc2cc2c1sc1ccncc12 | -1
O=C(/C=C/c1cccc(Br)c1)c1cccs1 | -1
COc1ccc(/N=C2\C(=N/c3ccc(OC)cc3)N(c3ccccc3[N+](=O)[O-])C(=S)N2c2ccc(OC)cc2)cc1 | -1
COc1cccc(/N=N/C(=NNC(=O)c2ccc(C)cc2)c2ccc(N(C)C)cc2)c1 | -1
O=c1[nH]c(=O)n(C2OC(CO)C(O)C(F)C2O)cc1F (stereo not drawn) | -1
Oc1cc(F)cc2cccnc12 | -1
CC(C)=CCC/C(C)=C/COc1c2ccoc2cc2oc(=O)ccc12 [BERGAMOTTIN] | -1
Cc1ccc(Nc2nc3ccccc3nc2NS(=O)(=O)c2ccc(N)cc2)cc1 | -1
Oc1c2c(c(O)c3ccccc13)C1(N=N2)c2ccccc2Oc2ccccc21 | -1

---

# Test system: OVCAR-5
# protocol.description: NCI tumour cell line growth inhibition, 48 h
Calls of active or inactive are those of the source. Cut-off read from the data, not from the text of the source: active = GI50 up to about 1.1 µM and inactive = higher.
value.type: GI50

chem.smiles | obs.value
COc1ccc(C(=O)NC2=C(Cl)C(=O)c3ccccc3C2=O)cc1 | 2.7 µM (inactive)
Cc1csc2c(=O)n(COCc3ccccc3)c(=O)[nH]c12 | > 100 µM (inactive)
CCOS(=O)(=O)c1ccc(-c2c3nc(c(-c4ccc(S(=O)(=O)OCC)cc4)c4ccc([nH]4)c(-c4ccc(S(=O)(=O)OCC)cc4)c4nc(c(-c5ccc(S(=O)(=O)OCC)cc5)c5ccc2[nH]5)C=C4)C=C3)cc1 | > 31.6 µM (inactive)
Cc1cc(Br)ccc1NC1=CC(=O)C(=O)c2ccccc21 | 70.8 µM (inactive)

---

# Tested on: K562
# protocol.description: NCI tumour cell line growth inhibition, 48 h
The source made the active and inactive calls. No stated cut-off is given here; in the data, active = GI50 up to about 1.1 µM and inactive = higher.
GI50 values for the compounds below.
value.type: GI50

compound | value.type | obs.value
CCOC(=O)NC(NNc1ccc([N+](=O)[O-])cc1[N+](=O)[O-])(C(F)(F)F)C(F)(F)F | GI50 | 25.1 µM (inactive)
COc1c(Br)cc(CC(N)=O)c(O)c1Br | GI50 | > 100 µM (inactive)
C=C1C(=O)OC2(C)C3CCC(C3)C12 (configuration not stated) | GI50 | 33.3 µM (inactive)
COc1ccc2c(c1)CCc1cc(C(N)=O)c3nnnn3c1-2 | GI50 | > 96.6 µM (inactive)
CN1C(=O)c2cccc3cc([N+](=O)[O-])cc(c23)C1=O | GI50 | > 10 µM (inactive)
O=C1NC(=O)C(COCc2ccccc2)C2=C1SCCC2 (configuration not stated) | GI50 | > 100 µM (inactive)
S=C1SC(c2ccc(Cl)cc2)(c2ccc(Cl)cc2)c2ccccc21 | GI50 | 64.9 µM (inactive)
CN(N)/N=N/c1[nH]cnc1C(N)=O | GI50 | 1.92 µM (inactive)
[O-]c1c2cc(-[n+]3c(-c4ccccc4)cc(-c4ccccc4)cc3-c3ccccc3)cc1COCCOCCOCCOCCOC2 | GI50 | 34 µM (inactive)
CCCCCC/C=C\CCCCCCCCCc1cccc(OC)c1O | GI50 | > 100 µM (inactive)
O=C(c1ccccc1Br)C(F)(F)F | GI50 | > 100 µM (inactive)
O=c1[nH]c(=O)c2c([nH]1)[nH]c1ccccc12 | GI50 | > 100 µM (inactive)
O=C(N/N=C1/C(=O)N(c2ccc(Cl)cc2Cl)C(=O)C(=O)C1c1nc2ccccc2o1)c1ccccc1O (configuration not stated) | GI50 | 47 µM (inactive)
COc1ccc(N2C(=O)/C(=C/c3ccc(N(CCC#N)CCC#N)cc3C)N=C2c2cc([N+](=O)[O-])ccc2Cl)cc1 | GI50 | 2.62 µM (inactive)
Cc1nn(C(=O)c2ccncc2)c2c1C(c1ccccc1[N+](=O)[O-])SC(=N)N2 (configuration not stated) | GI50 | > 10 µM (inactive)
COc1cc(O)c(C(=O)/C=C/c2ccc(O)cc2)cc1Oc1ccc(/C=C/C(=O)c2ccc(O)cc2O)cc1 | GI50 | 9.75 µM (inactive)
CCOC(=O)C(=O)Nc1c(F)cc(F)cc1Br | GI50 | > 100 µM (inactive)
C/C(=C\CO)CC/C=C(\C)CNc1ccccc1 | GI50 | 28.6 µM (inactive)
[C-]#[N+]C1(C(=O)OCC)CC1 | GI50 | > 100 µM (inactive)
O=[N+]([O-])c1ccc(-c2ccc(/C=N/n3c(S)nnc3-c3ccc(Cl)cc3)o2)cc1 | GI50 | 19.2 µM (inactive)
NC(=O)[C@H](Cc1ccc(O)cc1)NC1=C(Cl)C(=O)c2c(O)ccc(O)c2C1=O | GI50 | 1.45 µM (inactive)
C=CCSC1=N/C(=C\c2ccco2)C(=O)N1CC=C | GI50 | 35.2 µM (inactive)
